Give glycan array binding signal (z-score) for every item shown.
- Measured on: Neu5Ac(a2-6)Gal(b1-4)GlcNAc(b1-3)Gal(b1-4)GlcNAc(b1-3)Gal(b1-4)GlcNAc(b1-2)Man(a1-3)[Neu5Ac(a2-6)Gal(b1-4)GlcNAc(b1-3)Gal(b1-4)GlcNAc(b1-3)Gal(b1-4)GlcNAc(b1-2)Man(a1-6)]GalNAc
- Assay method text: glycan array binding signal (z-score within array); higher = stronger binding
- Details: glycan notation: IUPAC condensed, linker removed
Only a selection was taken, and the strongest signals are over-represented in it overall.

Binder	Reported
SBD-G4S3-Fc (protein) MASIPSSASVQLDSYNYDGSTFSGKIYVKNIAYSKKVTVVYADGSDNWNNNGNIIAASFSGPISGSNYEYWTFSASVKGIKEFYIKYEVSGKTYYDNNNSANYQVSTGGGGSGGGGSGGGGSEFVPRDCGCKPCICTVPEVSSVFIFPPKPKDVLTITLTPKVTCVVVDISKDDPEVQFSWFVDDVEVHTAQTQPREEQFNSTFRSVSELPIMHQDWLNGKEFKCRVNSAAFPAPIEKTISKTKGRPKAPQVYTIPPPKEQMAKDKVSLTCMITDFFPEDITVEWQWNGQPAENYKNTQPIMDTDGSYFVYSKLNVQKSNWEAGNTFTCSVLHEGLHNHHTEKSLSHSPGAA	1.23

Enquiry: # input binder: SynCAM (Mus musculus) (protein) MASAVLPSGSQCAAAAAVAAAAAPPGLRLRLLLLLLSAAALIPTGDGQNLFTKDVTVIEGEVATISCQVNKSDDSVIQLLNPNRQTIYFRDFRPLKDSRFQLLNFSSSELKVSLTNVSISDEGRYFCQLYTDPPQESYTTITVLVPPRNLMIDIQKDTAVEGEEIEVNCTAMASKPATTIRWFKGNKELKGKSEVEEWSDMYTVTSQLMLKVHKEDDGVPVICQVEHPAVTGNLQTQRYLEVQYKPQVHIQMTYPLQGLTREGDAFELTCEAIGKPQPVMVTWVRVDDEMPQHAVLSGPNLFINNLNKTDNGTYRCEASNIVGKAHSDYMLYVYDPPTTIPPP ; wanted: its glycan array binding signal (z-score)
Return: 2.42
